Entries and their measured residual binding, % of no competitor follow.
- Assay Target: T1, cMetECDHis (human, UniProt P08581 25-932, limits assumed, biotinylated in the cross-block ELISA of Example 17)
- T1 construct: Expressed in HEK-293F cells; also called soluble cMetECDHis; biotinylated cMetECDHis
- Measurement Notes: cross-block ELISA; competitor 005
Numeric answer only, unit % assumed.

| Binder | Quantity | Meas Value |
| --- | --- | --- |
| anti-c-Met HuMab 008 (IgG1) (antibody, V domains shown, also called TH1016-008; PC1016-008) VH: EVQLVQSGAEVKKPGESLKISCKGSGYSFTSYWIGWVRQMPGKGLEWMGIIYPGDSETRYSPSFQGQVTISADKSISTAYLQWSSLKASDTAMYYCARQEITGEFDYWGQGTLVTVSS VL: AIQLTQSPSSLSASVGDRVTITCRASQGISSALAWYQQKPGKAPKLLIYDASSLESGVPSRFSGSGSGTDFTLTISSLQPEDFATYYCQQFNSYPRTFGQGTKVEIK | residual binding, % of no competitor | 63.9 |
| anti-c-Met HuMab 045 (IgG1) (antibody, V domains shown, also called TH1016-045; PC1016-045) VH: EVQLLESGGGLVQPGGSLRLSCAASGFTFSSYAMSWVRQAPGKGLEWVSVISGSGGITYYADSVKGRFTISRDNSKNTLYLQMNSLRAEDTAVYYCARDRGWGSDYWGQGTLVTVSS VL: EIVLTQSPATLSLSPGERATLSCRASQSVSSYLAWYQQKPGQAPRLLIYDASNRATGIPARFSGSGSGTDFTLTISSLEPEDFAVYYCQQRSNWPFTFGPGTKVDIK | residual binding, % of no competitor | 111 |

Note: attention shifts to another entry.
Ask: Param item = IgG1-024 (antibody, V domains shown, also called TH1016-024; PC1016-024) VH: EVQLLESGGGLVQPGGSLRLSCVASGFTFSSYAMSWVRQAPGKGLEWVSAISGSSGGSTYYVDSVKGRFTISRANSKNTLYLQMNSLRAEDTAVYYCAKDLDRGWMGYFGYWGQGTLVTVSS VL: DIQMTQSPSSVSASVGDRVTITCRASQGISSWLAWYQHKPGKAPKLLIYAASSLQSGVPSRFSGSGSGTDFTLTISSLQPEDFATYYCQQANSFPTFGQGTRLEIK ; retrieve measured residual binding, % of no competitor.
Result: 98.4
